Cited source for all entries: patent US9102648B1

biological target: Bombyx mori EcR (VP16 fusion, CVBE switch construct) (Bombyx mori, UniProt P49881); experiment: Z3 Assay (HEK-293 cells with CVBE and 6XEcRE LacZ, β-galactosidase reporter)
Sequence (P49881 86-606): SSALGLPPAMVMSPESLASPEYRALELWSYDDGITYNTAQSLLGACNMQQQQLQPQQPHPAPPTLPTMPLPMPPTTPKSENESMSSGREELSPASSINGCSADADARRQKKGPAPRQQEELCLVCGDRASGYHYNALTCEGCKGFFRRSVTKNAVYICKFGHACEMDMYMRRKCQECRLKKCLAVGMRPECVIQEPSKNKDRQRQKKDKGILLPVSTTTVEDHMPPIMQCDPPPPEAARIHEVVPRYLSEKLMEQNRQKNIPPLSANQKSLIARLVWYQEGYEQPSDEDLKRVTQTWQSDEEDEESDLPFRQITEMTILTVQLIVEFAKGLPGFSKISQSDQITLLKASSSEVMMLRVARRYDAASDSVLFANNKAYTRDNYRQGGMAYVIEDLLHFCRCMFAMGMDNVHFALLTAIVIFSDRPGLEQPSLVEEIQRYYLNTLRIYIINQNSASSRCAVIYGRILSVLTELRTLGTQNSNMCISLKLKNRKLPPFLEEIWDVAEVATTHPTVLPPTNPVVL
Sequence (P19793 whole entry partner, the tested form may be a part): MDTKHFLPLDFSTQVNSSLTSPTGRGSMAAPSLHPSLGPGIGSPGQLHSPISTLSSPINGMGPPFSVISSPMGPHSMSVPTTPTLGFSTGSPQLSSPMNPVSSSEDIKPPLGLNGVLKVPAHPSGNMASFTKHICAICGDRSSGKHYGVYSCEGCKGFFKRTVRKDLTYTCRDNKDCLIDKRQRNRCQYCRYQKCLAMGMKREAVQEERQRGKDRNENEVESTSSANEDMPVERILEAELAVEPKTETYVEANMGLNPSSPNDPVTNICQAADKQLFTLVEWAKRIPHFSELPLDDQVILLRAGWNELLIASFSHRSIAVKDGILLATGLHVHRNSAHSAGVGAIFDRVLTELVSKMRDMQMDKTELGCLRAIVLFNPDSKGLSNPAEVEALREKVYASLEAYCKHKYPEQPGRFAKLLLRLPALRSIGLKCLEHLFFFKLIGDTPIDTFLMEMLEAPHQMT
Result Type: log10(EC50) (log10 of the value in µM)
Please keep in mind that the values are log10 of EC50 expressed in µM.

Query: Could you tell me which log10(EC50) is on file for CCc1c(OC)cccc1C(=O)NN(C(=O)c1cc(C)cc(C)c1)C(C)(C)C=O ?
Result: -0.46

Query: What would you report for COc1cc(C(=O)N(NC(=O)c2ccc3c(c2C)OCCO3)C(C)(C)C)cc(OC)c1O ?
Result: 0.52

Query: What would you report for COc1cccc(C(=O)NN(C(=O)c2cc(C)cc(C)c2)C(C)(C)C)c1CO ?
Result: 0.48

Query: What would you report for CC(C)(C)N(NC(=O)c1ccc(Cl)cc1)C(=O)c1ccccc1 ?
Result: 0.35

Query: What would you report for COc1cccc(C(=O)NN(C(=O)c2cc(C)cc(C)c2)C(C)(C)C)c1C ?
Result: -1.02

Query: What would you report for COc1cc(C(=O)N(NC(=O)c2ccc3c(c2C)OCCO3)C(C)(C)C#N)cc(OC)c1C ?
Result: -1.43

----------
I'd appreciate it if you could supply solubility kinetic values for the items below.
test: Determination of water solubility (de-ionized water, LC/MS); conditions: kinetic from dmso stock
Provide the reading as a plain figure in µM.

Query: Could you tell me which solubility kinetic is on file for CCC(N(NC(=O)c1cccc(C)c1C)C(=O)c1cc(C)cc(C)c1)C(C)(C)C (stereo not shown) [RG-103309] ?
Result: 2.9

Query: What would you report for COc1cc(C(=O)N(NC(=O)c2ccc3c(c2C)OCCO3)C(C)(C)C)cc(OC)c1C [RG-115637] ?
Result: 13.7

Query: What would you report for COc1ccc(C(=O)N(NC(=O)c2ccc3c(c2C)OCCO3)C(C)(C)C)c(OC)n1 [RG-115517] ?
Result: 36.7

Query: What would you report for CCc1c(OC)cccc1C(=O)NN(C(=O)c1cc(C)cc(C)c1)C(C)(C)C [RG-102240] ?
Result: 9.8

Query: What would you report for COc1cc(C(=O)N(NC(=O)c2ccc3c(c2C)OCCO3)C(C)(C)C)cc(OC)c1O [RG-115009] ?
Result: 30.4

Query: What would you report for Cc1c(C(=O)NN(C(=O)c2cc(F)c(F)c(F)c2)C(C)(C)C)ccc2c1CCCO2 [RG-115575] ?
Result: 21.6

Query: What would you report for CCc1ccc(C(=O)NN(C(=O)c2cc(C)cc(C)c2)C(C)(C)C)c(F)c1 [RG-101523] ?
Result: 13.4

----------
molecular target: Bombyx mori EcR (VP16 fusion, CVBE switch construct) (Bombyx mori); experiment: Z3 Assay (HEK-293 cells with CVBE and 6XEcRE LacZ, β-galactosidase reporter); settings: 33 uM ligand; ligand treated / DMSO treated cells; average of two wells
Result Type: Fold Induction, Z3 Assay, 33 uM

Query: // lookup Fold Induction, Z3 Assay, 33 uM | system=Bombyx mori EcR (VP16 fusion, CVBE switch construct) (Bombyx mori) | key= COc1cccc(C(=O)NN(C(=O)c2cc(C)cc(C)c2)C(C)(C)C)c1N [RG-115378]
Result: 1464

Query: What would you report for CCc1ccc(C(=O)NN(C(=O)c2cc(C)cc(C)c2)C(C)(C)C)cc1Cl [RG-101864] ?
Result: 494

Query: What would you report for CCc1c(C(=O)NN(C(=O)c2cccc(C)c2)C(C)(C)C)ccc2c1OCCO2 [RG-101036] ?
Result: 404

Query: What would you report for CCc1c(OC)cccc1C(=O)NN(C(=O)c1nn(C(c2ccccc2)(c2ccccc2)c2ccccc2)c2ccccc12)C(C)(C)C [RG-115722] ?
Result: 1

Query: What would you report for CCc1c(C(=O)NN(C(=O)c2ccc(Cl)cc2F)C(C)(C)C)ccc2c1OCCO2 [RG-115514] ?
Result: 658

Query: What would you report for COc1ccc(Cl)cc1C(=O)N(NC(=O)c1cccc(C)c1C)C(C)(C)C [RG-101178] ?
Result: 431

Query: What would you report for Cc1cc(C)cc(C(=O)N(NC(=O)c2ccc(CC#N)cc2)C(C)(C)C)c1 [RG-100875] ?
Result: 1081

Query: What would you report for CCc1ccc(C(=O)NN(C(=O)c2cc(C)cc(C)c2)C(C)(C)C)cc1CC [RG-101889] ?
Result: 245
